Origin of values: patent US8258290B2

# assayedSystem: PA-IL lectin (Pseudomonas aeruginosa, UniProt Q05097)
# Construct: purchased Sigma-Aldrich, St. Louis, Mo
# Sequence (Q05097 whole entry): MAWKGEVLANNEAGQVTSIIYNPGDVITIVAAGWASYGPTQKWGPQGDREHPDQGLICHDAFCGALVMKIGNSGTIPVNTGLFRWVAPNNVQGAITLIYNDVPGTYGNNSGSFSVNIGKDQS
# testDescription: Assay for PA-IL antagonist activity (plate-coated PA-IL, α-galactose-PAA-biotin/streptavidin-HRP competition)
# Type: binding
# conditionDescription: FIG. 5; qualitative
measurementName: inhibition of PA-IL lectin

C[C@H](O)[C@@H](O)[C@@H](O)[C@H](O)C=O; not
OC[C@H]1O[C@H](OCC2O[C@@H](O)[C@H](O)[C@@H](O)[C@@H]2O)[C@H](O)[C@@H](O)[C@H]1O (stereo partly shown); inhibited
CC1OC(OC2C(CO)OCCC2OC2OC(CO)C(O)C(OC3OC(CO)C(O)C(O)C3O)C2O)C(O)C(O)C1O (stereo not shown); inhibited
O=C[C@H](O)[C@@H](O)[C@@H](O)[C@H](O)CO; inhibited
